Source: patent US12103915B2

subject of test: TEAD1 (Homo sapiens)
Sequence (P28347 whole entry, species assumed): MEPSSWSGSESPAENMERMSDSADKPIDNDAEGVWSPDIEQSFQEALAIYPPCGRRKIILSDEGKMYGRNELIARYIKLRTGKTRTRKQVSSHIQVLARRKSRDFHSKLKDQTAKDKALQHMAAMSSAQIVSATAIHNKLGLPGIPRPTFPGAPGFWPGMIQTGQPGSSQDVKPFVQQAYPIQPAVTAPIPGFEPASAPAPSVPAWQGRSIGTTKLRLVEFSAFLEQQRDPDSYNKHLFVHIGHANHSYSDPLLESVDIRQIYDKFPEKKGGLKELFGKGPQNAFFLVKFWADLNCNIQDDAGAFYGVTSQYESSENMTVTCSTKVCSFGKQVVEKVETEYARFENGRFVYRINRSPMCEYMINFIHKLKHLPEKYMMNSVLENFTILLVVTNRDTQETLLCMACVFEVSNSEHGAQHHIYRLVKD
run description: Thermal shift assay TEAD1
Type: binding
Note to self: values exactly at 5 °C are true. So TEAD1 ΔTm at or above 5 °C is true, below is false.

API: above_or_equal(metric=TEAD1 ΔTm, cutoff=5 °C) for item Cn1cc2cc(Oc3ccc(C(F)(F)F)cc3)cc([C@@H]3C[C@H]3C(=O)N=S(C)(C)=O)c2n1 (single isomer, unassigned) true

// query: CNC(=O)[C@@H]1C[C@H]1c1cc(Oc2ccc(C(F)(F)F)cc2)cc2c1NCCC2 (racemic) false

Consider next the compound CO[C@H]1CN(C(=O)[C@@H]2C[C@H]2c2cc(Oc3ccc(C(F)(F)F)cc3)cc3cn(C)nc23)C[C@@H]1O (single isomer, unassigned) [Example 112a] in the same way. true

Now the compound [2H]C([2H])([2H])n1cc2cc(Oc3ccc(C(F)(F)F)cc3)cc([C@@H]3C[C@H]3C(=O)NC)c2n1 (single isomer, unassigned) [Example 76a] true

What about this compound? CCNC(=O)[C@@H]1CC1c1cc(-c2ccc(C(F)(F)F)cc2)cc2c1=NC(C)N=2 (mixture of isomers) false

Now consider CNC(=O)[C@@H]1C[C@H]1c1cc(Oc2ccc(C(F)(F)F)cc2)cc2cn(C)nc12 (single isomer, unassigned) [Example 34a] and answer again. true

###

Would you mind telling me the reported IC50 of each entry?
Test system: NCI-H226 cells
run description: Cell growth assay (CellTiter-Glo)
Format: cell-based, human
conditions used: Homo sapiens, NCI-H226, 168 h, 7 days treatment, CellTiter-Glo luminescence, read-out: H226 CTG IC50

Record CNS(=O)(=O)[C@@H]1CC1c1cc(Oc2ccc(C(F)(F)F)cc2)cc2cn(C)nc12 (mixture of isomers) : what is its IC50 with NCI-H226 cells? 1000 to 30000 nM

What do we get for Cn1ncc2c(C3C[C@H]3C(N)=O)cc(-c3ccc(C(F)(F)F)cc3)cc21 (mixture of isomers) ? < 100 nM

Query Cn1cc2cc(Oc3ccc(C(F)(F)F)cc3)cc(C3C[C@H]3C(=O)N3CCC(O)CC3)c2n1 (single isomer, unassigned) next < 100 nM

Then this molecule: Cn1cc2cc(-c3ccc(C(F)(F)F)cc3)cc(C3C[C@H]3C(=O)O)c2n1 (mixture of isomers) < 100 nM

Please do the same for CNC(=O)[C@@H]1CC1c1cc(-c2ccc(C(F)(F)F)cc2)cc2c1cnn2C (mixture of isomers) [Example 24] as well. 100 to 500 nM

What about this molecule? `CC(=O)NS(=O)(=O)CCc1cc(-c2ccc(C(F)(F)F)cc2)cc2cn(C)nc12` 1000 to 30000 nM

Similarly, Cn1ncc2c(C3C[C@H]3C(=O)O)cc(Oc3ccc(C(F)(F)F)cc3)cc21 (mixture of isomers) ? 100 to 500 nM

Same question for Cc1cn2cc(Oc3ccc(C(F)(F)F)cc3)cc([C@H]3C[C@@H]3C(=O)N3CC(O)C3)c2n1 (single isomer, unassigned) [Example 85b] please. < 100 nM

Another molecule to look at: CNS(=O)(=O)[C@@H]1CC1c1cc(Oc2ccc(C(F)(F)F)cc2)cc2cccnc12 (mixture of isomers) 500 to 1000 nM

Record: Cn1cc2cc(Oc3ccc(C(F)(F)F)cc3)cc(C3C[C@H]3C(=O)N3C4COCC3C4)c2n1 (single isomer, unassigned) < 100 nM
